ASSAY PROTOCOL: BET inhibitor-based combinations targeting novel dependencies in MECOM-rearranged (r) AML: MV-4-11 cell line (AID 2202233); further: nearly all actives have a fitted effect of over 45% in size
MEASUREMENT CONTEXT: MV-4-11 AML viability, CellTiter-Glo luminescence, 48 h; series mostly up to 46 µM
Inconclusive results are not listed. Calls of active or inactive are those of the source. The call rests on the fitted dose curve; in most records, active means well fitted inhibition curve with a large enough effect; inconclusive means small, poorly fitted or top-dose-only effect; inactive means no such curve, though single readings can be large or run the other way.
Could you please pick one outcome from this set? Y = active, N = inactive

# example entries with known answers
C=C[C@@H]1CN2CCC1C[C@H]2[C@H](O)c1ccnc2ccc(OC)cc12 (stereo not given in full) = Y
C[C@]12CCC3=C4CCC(=O)C=C4CC[C@H]3[C@@H]1CC[C@@]2(O)CC#N = N
COC(=O)C1=C(C)NC(c2ncc(F)cc2F)=N[C@H]1c1ccc(F)cc1Cl = Y
COCCOc1cnc2ccn([C@H](C)c3nnc4c(F)cc(-c5cnn(C)c5)cn34)c(=O)c2c1 = N

Test call for this molecule, please: C[C@H]1O[C@H](O[C@H]2[C@H](O)[C@@H](O)[C@@H](O[C@H]3[C@H](O)[C@@H](O)C(O)O[C@@H]3CO)O[C@@H]2CO)[C@H](O)[C@@H](O)[C@@H]1N[C@H]1C=C(CO)[C@@H](O)[C@H](O)[C@H]1O (stereo not given in full)
N
